Quick reference: plasmin generation, hepatic stellate cells, Imax of the listed items.
- Assay system: glycosylated human PAI-1 (active form) (human, UniProt P05121 24-402, glycosylated)
- Sequence (P05121 24-402 limits assumed): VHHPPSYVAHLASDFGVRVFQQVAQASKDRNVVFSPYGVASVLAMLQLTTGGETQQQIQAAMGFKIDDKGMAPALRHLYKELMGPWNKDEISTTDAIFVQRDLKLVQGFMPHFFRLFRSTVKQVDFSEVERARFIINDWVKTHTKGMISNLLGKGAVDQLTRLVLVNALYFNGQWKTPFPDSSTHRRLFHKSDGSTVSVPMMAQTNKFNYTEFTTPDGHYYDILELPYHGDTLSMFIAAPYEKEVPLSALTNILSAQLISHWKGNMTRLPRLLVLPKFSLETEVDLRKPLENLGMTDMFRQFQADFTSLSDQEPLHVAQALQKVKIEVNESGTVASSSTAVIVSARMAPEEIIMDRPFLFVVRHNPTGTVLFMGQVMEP
- Protocol: cell-based or functional assay
Outcome measure: plasmin generation, hepatic stellate cells, Imax (%)

binder="C45 (antibody, mouse IgG2b, V domains shown, mouse IgG2b; also called mC45; C45 (IgG2b)) VH: QVQLQQSGVELVRPGTSVKVSCKASGYAFTNYLIEWIKQRPGQGLEWIGVIHPGSGVTNYNEKFKGKAILTADKSSSTAYMQLSSLTSDDSAVYFCARDYYGSSHGLMDYWGQGTSVTVSS VL: DIKMTQSPSSMYASLGERVTITCKASQDINSYLSWFQQKPGKSPKTLIYRANRLVDGVPSRFSGSGSGQDYSLTISSLEYEDMGIYYCLQYDEFPRTFGGGTKLEIK" recorded_number=97
binder="E16 (antibody, mouse IgG1, V domains shown, mouse IgG1; also called mE16; E16 (IgG1)) VH: EVKLVESGGGLVKPGGSLKLSCAASGFTFSNYGMSWVRQTPEKGLGWVASLRTGGNTYYSDSVKGRFTISRDNDRNILYLQMSSLTSEDTAVYYCARGLRHWGYFDVWGAGTTVTVSS VL: DIVMTQSHKFMSTSVGDRVNITCKASQDVSTAVGWYQQEPGQSPKLLIYSASNRHTGVPDRFTGSGSGTDFTFTISSVQAEDLAVYYCQQHYSSPWTFGGGTKLEIK" recorded_number=95
binder="B28 (antibody, mouse IgG2b, V domains shown, mouse IgG2b/kappa; also called mB28; B28 (IgG2b/k)) VH: QVQLQQSGAELMKPGASVKISCKATGYTFSISWIEWIKQRPGGLEWIGKILPGSGGANYNEKFKGKATVTADTSSNTVYMQLSSLTSEDSAVYYCARLSTGTRGAFDYWGQGTTLTVSS VL: DIQLTQSPASLSASVGATVTITCRASENVYSYLAWYQQKQGKSPQLLVYNAKTLAEGVPSRFSGSGSGTQFSLKINYLQPEDFGSYYCQHHYGTPPTFGGGTKVEIKR" recorded_number=90
binder="A44 (antibody, mouse IgG1, V domains shown, mouse IgG1/kappa; also called mA44; A44 parental) VH: EMQLQESGPSLVKPSQTLSLTCSVTGDSMTNGYWNWIRKFPGNKLEYMGYITYSGSTYYNPSLKGRISITRNTSKNQYYLQLSSVTTEDTATYYCARWHYGSPYYFDYWGQGTTLTVSS VL: DIKMTQSPSSMYASLGERVTITCKASQDINSYLSWLQQKPGKSPKTLIYRANRSVDGVPSRFSGSGSGQDYSLTISSLEYEDMGIYYCLQYDEFPPTFGGGTKLEIKR" recorded_number=97
